# Assay Target: DGKα (Homo sapiens)
# Construct: Full length DGKα (D21-10BG, SignalChem); purchased SignalChem D21-10BG
# Sequence (P23743 whole entry): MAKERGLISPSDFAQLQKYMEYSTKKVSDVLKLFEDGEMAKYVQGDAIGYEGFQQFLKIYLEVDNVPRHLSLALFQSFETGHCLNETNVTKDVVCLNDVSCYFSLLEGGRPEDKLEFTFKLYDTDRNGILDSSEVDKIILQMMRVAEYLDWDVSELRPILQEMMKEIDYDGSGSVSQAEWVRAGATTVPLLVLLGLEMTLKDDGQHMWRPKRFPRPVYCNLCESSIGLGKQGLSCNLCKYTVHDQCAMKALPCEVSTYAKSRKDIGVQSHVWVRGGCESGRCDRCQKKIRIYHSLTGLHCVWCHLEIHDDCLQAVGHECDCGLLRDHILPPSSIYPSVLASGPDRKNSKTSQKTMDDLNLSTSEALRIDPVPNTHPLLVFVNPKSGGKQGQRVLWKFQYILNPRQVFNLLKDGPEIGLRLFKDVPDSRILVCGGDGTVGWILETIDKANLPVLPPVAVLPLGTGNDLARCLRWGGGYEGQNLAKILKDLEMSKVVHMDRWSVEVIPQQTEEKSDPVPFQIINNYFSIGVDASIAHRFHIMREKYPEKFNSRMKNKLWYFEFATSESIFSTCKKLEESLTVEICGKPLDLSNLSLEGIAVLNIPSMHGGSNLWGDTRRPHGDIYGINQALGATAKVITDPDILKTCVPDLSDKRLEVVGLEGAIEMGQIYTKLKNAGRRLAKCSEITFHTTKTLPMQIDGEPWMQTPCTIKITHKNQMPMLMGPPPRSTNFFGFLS
# Experimental Details: Biochemical DGK IC50 assay, DGKα ADP-Glo assay
# Assay Context: full length DGKα 7.5 nM, ATP 140 μM, DAG 80 μM
Measured Metric: IC50 (µM)

>>> value_measured("CC[C@H]1CN(C(C)c2ccc(CN3CCOCC3)cc2)[C@H](CC)CN1c1cc(=O)n(C)c2cn(CC#N)nc12 (single isomer, unassigned) [Compound A383b]")
2.79
>>> value_measured("CC(c1ccc2c(c1)OCC(C)(C)O2)N1C[C@H](C)N(c2cc(=O)n(C)c3cn(CC#N)nc23)C[C@H]1C (single isomer, unassigned) [Compound A46e]")
26
>>> value_measured("CC[C@H]1CN(C2CCOc3ccccc32)[C@H](CC)CN1c1cc(=O)n(C)c2cn(CC#N)nc12 (single isomer, unassigned) [Compound A150b]")
0.0825
>>> value_measured("CC[C@H]1CN(C2CCOc3ccccc32)[C@H](CC)CN1c1cc(=O)n(C)c2cn(CC#N)nc12 (single isomer, unassigned) [Compound A150a]")
5.83
>>> value_measured("CC[C@H]1CN(C(C)c2ccc3nc(OC)cnc3c2)[C@H](CC)CN1c1cc(=O)n(C)c2cn(CC#N)nc12 (single isomer, unassigned) [Compound A281b]")
11.2
>>> value_measured("Cc1cnc2ccc([C@H](C)N3C[C@H](C)N(c4cc(=O)n(C)c5cn(CC#N)nc45)C[C@H]3C)cc2n1 (single isomer, unassigned) [Compound A269d]")
51.7
>>> value_measured("CC[C@H]1CN(C(C)c2cccc(C)c2C(F)(F)F)[C@H](CC)CN1c1cc(=O)n(C)c2cn(CC#N)nc12 (single isomer, unassigned) [Compound A110b]")
9.03

Just for reference, patent US20240300951A1 is where these values come from.
